target: human plasma kallikrein (Homo sapiens); test: Kallikrein inhibition FLINT assay with quenched AMC peptide substrate Z-Gly-Pro-Arg-AMC (end point EP or kinetic KIN reads); format: biochemical; conditions: end point read at 30 min; read-out: Kallikrein (EP) IC50
attributeMeasured: IC50 (µM)

INSERT INTO measurements (compound, attributemeasured, unittext, experimentalresult) VALUES
  ('CN1CCc2cc(-c3cnn(C(CC4CC4)c4ccc(-c5cc(Cl)ccc5-n5cnnn5)c[n+]4[O-])c3)ccc2C1=O (stereo not drawn)', 'IC50', 'µM', 0.598),
  ('CC(N)c1ccc(-c2cnn(C(Cc3ccccc3)c3ccc(-c4cc(Cl)ccc4-n4cnnn4)c[n+]3[O-])c2)cc1 (stereo not drawn)', 'IC50', 'µM', 0.405),
  ('O=C(O)c1ccc(-c2cnn(C(CC3CC3)c3ccc(-c4cc(Cl)ccc4-n4cc(Cl)nn4)c[n+]3[O-])c2)cc1 (stereo not drawn)', 'IC50', 'µM', 0.517);

====

target: human plasma kallikrein (Homo sapiens, UniProt P03952); test: Kallikrein inhibition FLINT assay with quenched AMC peptide substrate Z-Gly-Pro-Arg-AMC (end point EP or kinetic KIN reads); assay type: biochemical; settings: kinetic reads at 5 min intervals over 30 min; read-out: Kallikrein (KIN) IC50
Sequence (P03952 391-638 limits assumed): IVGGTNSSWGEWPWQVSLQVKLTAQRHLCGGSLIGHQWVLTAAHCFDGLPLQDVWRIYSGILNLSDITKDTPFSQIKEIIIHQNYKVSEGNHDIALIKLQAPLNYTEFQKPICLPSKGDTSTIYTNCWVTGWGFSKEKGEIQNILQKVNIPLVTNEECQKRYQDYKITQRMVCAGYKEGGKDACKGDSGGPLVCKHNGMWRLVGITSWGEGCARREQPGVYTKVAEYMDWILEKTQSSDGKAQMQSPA
Sequence (P03952 20-390 partner limits assumed): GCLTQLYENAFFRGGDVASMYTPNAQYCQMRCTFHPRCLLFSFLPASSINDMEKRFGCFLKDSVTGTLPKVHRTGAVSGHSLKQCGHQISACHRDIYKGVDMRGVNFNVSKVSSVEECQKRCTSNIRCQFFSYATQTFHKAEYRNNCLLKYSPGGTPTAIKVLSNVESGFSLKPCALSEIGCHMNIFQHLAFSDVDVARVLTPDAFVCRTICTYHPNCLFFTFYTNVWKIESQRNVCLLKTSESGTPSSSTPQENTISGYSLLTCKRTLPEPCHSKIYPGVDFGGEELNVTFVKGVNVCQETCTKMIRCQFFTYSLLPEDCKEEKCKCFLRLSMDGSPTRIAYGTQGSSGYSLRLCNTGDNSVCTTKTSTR
attributeMeasured: IC50 (nM)

INSERT INTO results (compound, attributemeasured, experimentalresult) VALUES
  ('CN(CC(c1ccc(-c2c(-n3cnnn3)ccc(Cl)c2F)c[n+]1[O-])n1cc(-c2ccnc(F)c2)cn1)C(=O)c1ccccc1 (centres unmarked) [Example P424]', 'IC50', 28.6),
  ('N#Cc1cc(-c2cnn(C(Cn3ccccc3=O)c3ccc(-c4c(-n5cnnn5)ccc(Cl)c4F)c[n+]3[O-])c2)ccn1 (centres unmarked) [Example P459]', 'IC50', 105),
  ('[O-][n+]1ccc(-c2cnn(C(CC3CC3)c3ccc(-c4c(-n5cnnn5)ccc(Cl)c4F)c[n+]3[O-])c2)cc1 (single isomer, unassigned) [Example P280]', 'IC50', 84),
  ('O=C1CCC(c2ccc(-c3cnn(C(Cc4ccc(F)cc4)c4ccc(-c5c(-n6cnnn6)ccc(Cl)c5F)c[n+]4[O-])c3)cc2)N1 (centres unmarked) [Example P121]', 'IC50', 11.3);

a. CN(CC(c1ccc(-c2c(-n3cnnn3)ccc(Cl)c2F)c[n+]1[O-])n1cc(-c2ccnc(C(F)(F)F)c2)cn1)C(=O)CCC(=O)N1CCCCC1 (single isomer, unassigned) [Example P400]
b. NC(=O)c1ccc(-c2cnn(C(CCOC(F)F)c3ccc(-c4c(-n5cc(C(F)(F)F)nn5)ccc(Cl)c4F)c[n+]3[O-])c2)cc1F (centres unmarked) [Example P844]
c. COc1cc(C(CC2CC2)n2cc(-c3sc(C(N)=O)cc3C)cn2)[n+]([O-])cc1-c1cc(Cl)ccc1-n1cc(C(F)(F)F)nn1 (single isomer, unassigned) [Example P958]
d. COCCC(c1ccc(-c2c(-n3cnnn3)ccc(Cl)c2F)c[n+]1[O-])n1cc(-n2ccnc2)cn1 (single isomer, unassigned) [Example P527]
With regard to IC50, arrange the entries in ascending order, please. # respond with the labels, arranged in the requested order
c, b, a, d
(c: 13.1 nM, b: 31.3 nM, a: 93.8 nM, d: 176 nM)

====

biological target: human plasma kallikrein (Homo sapiens, UniProt P03952); test: Kallikrein inhibition FLINT assay with quenched AMC peptide substrate Z-Gly-Pro-Arg-AMC (end point EP or kinetic KIN reads); assay type: biochemical; settings: kinetic reads at 5 min intervals over 30 min; read-out: Kallikrein (KIN) IC50
attributeMeasured: IC50 (nM)

Sample answers from the record:
INSERT INTO measurements (molecule, attributemeasured, experimentalresult) VALUES
  ('CN(CC(c1ccc(-c2c(-n3cnnn3)ccc(Cl)c2F)c[n+]1[O-])n1cc(-c2ccnc(F)c2)cn1)C(=O)C(C)(C)C (stereo not shown) [Example P426]', 'IC50', 53.6),
  ('[O-][n+]1cc(-c2cc(Cl)ccc2-n2cnnn2)ccc1C(Cc1ccc(Cl)cc1)n1cc(-c2cc(Cl)ccc2-n2cnnn2)cn1 (stereo not shown) [Example P152]', 'IC50', 895),
  ('Cn1ncc(F)c1-c1cnn(C(CC2CC2)c2ccc(-c3c(-n4cnnn4)ccc(Cl)c3F)c[n+]2[O-])c1 (stereo not shown) [Example P478]', 'IC50', 236),
  ('COC(=O)N1CCC(c2cnn(C(CC3CC3)c3ccc(-c4c(-n5cnnn5)ccc(Cl)c4F)c[n+]3[O-])c2)CC1 (stereo not shown) [Example P167]', 'IC50', 826),
  ('NC(=O)c1ccc(-c2cnn([C@H](CCOC(F)F)c3ccc(-c4cc(Cl)ccc4-n4cc(C(F)(F)F)nn4)c[n+]3[O-])c2)cc1F [Example P859]', 'IC50', 28.7);

I. NC(=O)c1ccc(-c2cnn(C(Cc3ccn(C(F)F)n3)c3ccc(-c4c(-n5cnnn5)ccc(Cl)c4F)c[n+]3[O-])c2)cc1F (single isomer, unassigned) [Example P932]
II. [O-][n+]1cc(-c2c(-n3cnnn3)ccc(Cl)c2F)ccc1[C@@H](CCOC(F)F)n1cc(-c2ccnn2C(F)F)cn1 [Example P564]
// compare measured IC50 between I and II ; output the lower one // return label of chosen record
II
(II: 5.6 nM, I: 27 nM)

P. COCc1ccn(CC(c2ccc(-c3c(-n4cnnn4)ccc(Cl)c3F)c[n+]2[O-])n2cc(-c3ccc(N)nc3F)cn2)n1 (stereo not shown) [Example P492]
Q. O=C(O)C1CCCN(C(=O)C2CC2CC(c2ccc(-c3c(-n4cnnn4)ccc(Cl)c3F)c[n+]2[O-])n2cc(-c3ccccc3)cn2)C1 (stereo not shown) [Example P223]
For this pair, P and Q , which shows a numerically higher IC50? // return label of chosen record
Q
(Q: 791 nM, P: 2.8 nM)

====

molecular target: human plasma kallikrein (Homo sapiens); assay: Kallikrein inhibition FLINT assay with quenched AMC peptide substrate Z-Gly-Pro-Arg-AMC (end point EP or kinetic KIN reads); assay type: biochemical; conditions: kinetic reads at 5 min intervals over 30 min; read-out: Kallikrein (KIN) IC50
attributeMeasured: IC50 (nM)

INSERT INTO results (compound, experimentalresult) VALUES
  ('COc1cc(C(Cc2ccn(C(F)F)n2)n2cc(-c3ccc(C(N)=O)c(F)c3)cn2)[n+]([O-])cc1-c1c(C(F)F)ccc(Cl)c1F (stereo not drawn)', 10),
  ('NC(=O)c1ccc(-c2cnn(C(Cc3nccs3)c3ccc(-c4c(-n5cc(C(F)(F)F)nn5)ccc(Cl)c4F)c[n+]3[O-])c2)cc1F (single isomer, unassigned) [Example P942]', 249),
  ('O=C(O)c1cc(-c2cnn(C(CC3CC3)c3ccc(-c4c(C(F)F)ccc(Cl)c4F)c[n+]3[O-])c2)c[nH]1 (stereo not drawn)', 578);

P. CN1CCN(CC(c2ccc(-c3c(-n4cnnn4)ccc(Cl)c3F)c[n+]2[O-])n2cc(-c3ccnc(C(F)(F)F)c3)cn2)C1=O (single isomer, unassigned) [Example P433]
Q. [O-][n+]1cc(-c2cc(Cl)ccc2-n2cnnn2)ccc1C(Cc1ccc(Cl)cc1)n1cc(-c2ccnc(F)c2)cn1 (stereo not drawn)
R. COCC[C@H](c1ccc(-c2c(-n3cc(OC(F)F)nn3)ccc(Cl)c2F)c[n+]1[O-])n1cc(-c2cnnn2C)cn1
S. [O-][n+]1cc(-c2c(-n3cnnn3)ccc(Cl)c2F)ccc1C(Cc1ccc(F)cc1)n1cc(-c2nnn(C(F)F)c2Cl)cn1 (stereo not drawn)
T. O=C1CCCN1CC(c1ccc(-c2c(-n3cnnn3)ccc(Cl)c2F)c[n+]1[O-])n1cc(-c2ccnc(C(F)(F)F)c2)cn1 (single isomer, unassigned)
Falling order of IC50, please. # respond with the labels, arranged in the requested order
S, R, P, Q, T

====

target: human plasma kallikrein (Homo sapiens); assay: Kallikrein inhibition FLINT assay with quenched AMC peptide substrate Z-Gly-Pro-Arg-AMC (end point EP or kinetic KIN reads); format: biochemical; conditions: kinetic reads at 5 min intervals over 30 min; read-out: Kallikrein (KIN) IC50
pIC50: −log10 of the molar value.
attributeMeasured: pIC50

INSERT INTO measurements (molecule, attributemeasured, experimentalresult) VALUES
  ('COc1ccc(CC(c2ccc(-c3c(-n4cnnn4)ccc(Cl)c3F)c[n+]2[O-])n2cc(-c3ccn(C)c(=O)c3)cn2)cc1 (centres unmarked) [Example P134]', 'pIC50', 8.15);

a. [O-][n+]1cc(-c2c(-n3cnnn3)ccc(Cl)c2F)ccc1C(Cn1cc(F)c(COC(F)F)n1)n1cc(-c2ccnc(C(F)(F)F)c2)cn1 (single isomer, unassigned) [Example P571]
b. CN(CC(c1ccc(-c2c(-n3cnnn3)ccc(Cl)c2F)c[n+]1[O-])n1cc(-c2ccncc2)cn1)OC(F)(F)F (centres unmarked) [Example P323]
c. Cn1ncc(Cl)c1-c1cnn(C(CC2CC2)c2ccc(-c3c(-n4cnnn4)ccc(Cl)c3F)c[n+]2[O-])c1 (centres unmarked) [Example P555]
With regard to pIC50, arrange the entries in ascending order, please. # respond with the labels, arranged in the requested order
c, a, b
(c: 6.24, a: 6.87, b: 7.64)

A. Cn1ncnc1-c1cnn(C(Cc2ncco2)c2ccc(-c3c(-n4cc(C(F)(F)F)nn4)ccc(Cl)c3F)c[n+]2[O-])c1 (centres unmarked) [Example P925]
B. COC(=O)Nc1ccc(-c2cnn(C(CC3CCCCC3)c3ccc(-c4c(-n5cnnn5)ccc(Cl)c4F)c[n+]3[O-])c2)cc1 (centres unmarked) [Example P102]
C. N#Cc1cc(-c2cnn(C(CN3CCCC3=O)c3ccc(-c4c(-n5cnnn5)ccc(Cl)c4F)c[n+]3[O-])c2)ccn1 (centres unmarked) [Example P461]
D. [O-][n+]1cc(-c2c(-n3cnnn3)ccc(Cl)c2F)ccc1C(Cn1cccn1)n1cc(-c2ccncc2)cn1 (centres unmarked) [Example P269]
With regard to pIC50, arrange the entries in ascending order, please. # respond with the labels, arranged in the requested order
A, B, C, D
